experiment: Tanguay_ZF_120hpf_SOMI_legacy: (Legacy) Oregon State University Tanguay Lab 120 Hour Post-fertilization zebrafish Assay for Somite Malformation (AID 2283647)
Results filed as inconclusive are left out. Active and inactive are the calls of the source. Rule for the calls: active = hit-call score of the fitted dose curve at least 0.9, where 1 is the maximum; inconclusive = response in the unintended direction; inactive = score below 0.9.
Hello, when you answer, please use one of the following outcomes: active, inactive

Examples from the recorded data:
Cc1ccccc1CO[C@@H]1C[C@@]2(C(C)C)CC[C@]1(C)O2 ... inactive
ClC1=C(Cl)[C@]2(Cl)[C@@H]3[C@@H](Cl)[C@H]4O[C@H]4[C@@H]3C1(Cl)C2(Cl)Cl ... inactive
CC(C)(c1ccccc1)c1ccc(O)cc1 ... inactive
O=NN(c1ccccc1)c1ccccc1 ... inactive

Status in this test for `Clc1ccc(Cl)cc1` ?
inactive

Status in this test for `C[C@]12CCC(=O)C=C1CC[C@@H]1[C@@H]2CC[C@@]2(C)[C@H]1CC[C@]2(C)O` ?
inactive

Status in this test for C1CC2OC2CC1C1CO1 (stereo not given) ?
inactive

Status in this test for `ClC(Cl)=C(c1ccc(Cl)cc1)c1ccc(Cl)cc1` ?
inactive

Status in this test for `CCCCCCCCCc1ccc(O)cc1` ?
inactive

Status in this test for `CCC(C)(c1ccc(O)cc1)c1ccc(O)cc1` ?
active

----------
read-out: E-selectin (Homo sapiens); assay: BSK_LPS_Eselectin: BioMAP Diversity Plus: LPS Assay for Eselectin Biomarker Activity (AID 2283077); conditions: primary human HUVEC with PBMC; actives raise or lower the signal
The source made the active and inactive calls. How the source made its calls: active means hit-call score of the fitted dose curve at least 0.9, where 1 is the maximum; inactive means score below 0.9.
Hello, when you answer, please use one of the following outcomes: 1 (yes) = active, 0 (no) = inactive

Examples from the recorded data:
c1cc2ccc3cccc4ccc(c1)c2c34 ... 0 (no)
CCOCCOC(C)=O ... 0 (no)
Nc1ccc(-c2ccc(N)cc2)cc1 ... 0 (no)
O=C(NC(=O)c1cc(F)c(F)cc1Cl)Nc1cc(F)ccc1N1CCC(C(=O)O)CC1 ... 0 (no)
CN(C)c1nc(=O)n(C2CCCCC2)c(=O)n1C ... 0 (no)

Status in this test for `CCC(=O)O[C@H]1CC[C@H]2[C@@H]3CCC4=CC(=O)CC[C@]4(C)[C@H]3CC[C@]12C` ?
1 (yes)

Status in this test for `ClC(Cl)=C(c1ccc(Cl)cc1)c1ccc(Cl)cc1` ?
1 (yes)

Status in this test for `CCCCCCCCOC(=O)c1ccccc1C(=O)OCCCCCCCC` ?
0 (no)

Status in this test for `CCC(C)(CC)c1cc(NC(=O)c2c(OC)cccc2OC)on1` ?
0 (no)

Status in this test for `O=NN(c1ccccc1)c1ccccc1` ?
0 (no)

----------
read-out: Interleukin-1 alpha (IL1a), IL1A (gene 3552); assay: BSK_BE3C_IL1a: BioMAP Diversity Plus: BE3C Assay for Interleukin-1 alpha (IL1a) Biomarker Activity (AID 2283016); settings: primary human bronchial epithelial cells; actives raise or lower the signal
Active and inactive are the calls of the source. The calls were made as follows: active = hit-call score of the fitted dose curve at least 0.9, where 1 is the maximum; inactive = score below 0.9.
Hello, when you answer, please use one of the following outcomes: 1 (active), 0 (inactive)

Examples from the recorded data:
CCCCCCCCOC(=O)c1ccccc1C(=O)OCCCCCCCC ... 0
CCOP(=S)(OCC)SCSC(C)(C)C ... 0
CCCN(CCC)N=O ... 0
COS(=O)(=O)OC ... 0
Clc1ccc(C(Cl)(Cl)Cl)cc1 ... 0

Status in this test for `Cc1cc(O)ccc1Cl` ?
0

Status in this test for Clc1ccc(C(c2ccccc2Cl)C(Cl)(Cl)Cl)cc1 (stereo unspecified) ?
0

Status in this test for `Cc1cccc([N+](=O)[O-])c1` ?
0

Status in this test for `C[C@]12CCC(=O)C=C1CC[C@@H]1[C@@H]2CC[C@@]2(C)[C@H]1CC[C@]2(C)O` ?
0

Status in this test for `ClC(Cl)=C(c1ccc(Cl)cc1)c1ccc(Cl)cc1` ?
0

Status in this test for `CC(c1ccc(O)cc1)(c1ccc(O)cc1)c1ccc(O)cc1` ?
1

----------
experiment: Tanguay_ZF_120hpf_JAW_legacy: (Legacy) Oregon State University Tanguay Lab 120 Hour Post-fertilization zebrafish Assay for Jaw Malformation (AID 2283638)
Records with an inconclusive call do not appear. Calls of active or inactive are those of the source. How the source made its calls: active means hit-call score of the fitted dose curve at least 0.9, where 1 is the maximum; inconclusive means response in the unintended direction; inactive means score below 0.9.
Hello, when you answer, please use one of the following outcomes: t (active), f (inactive)

Examples from the recorded data:
CCC(C)(c1ccc(O)cc1)c1ccc(O)cc1 ... t
Cc1cc(-c2ccc(N)c(C)c2)ccc1N ... f
COS(=O)(=O)OC ... f

Status in this test for `CCC(C)(CC)c1cc(NC(=O)c2c(OC)cccc2OC)on1` ?
f

----------
read-out: Cytochrome P450 (CYP1A1), CYP1A1 (gene 1543); experiment: LTEA_HepaRG_CYP1A1: Life Technologies and Expression Analysis (LTEA) Assay for Cytochrome P450 (CYP1A1) using HepaRG (AID 2283454); conditions: mRNA level, 48 h; actives raise or lower the signal
Calls of active or inactive are those of the source. The calls were made as follows: active = hit-call score of the fitted dose curve at least 0.9, where 1 is the maximum; inactive = score below 0.9.
Hello, when you answer, please use one of the following outcomes: true (1) = active, false (0) = inactive

CN(C)CCO ... false (0)
Oc1ccc(Cl)cc1Cl ... false (0)
Oc1ccc(C(c2ccc(O)cc2)(C(F)(F)F)C(F)(F)F)cc1 ... true (1)
Cc1cccc(C)c1N ... true (1)
Cc1ccccc1[N+](=O)[O-] ... false (0)

Status in this test for `Nn1cnnc1` ?
true (1)

----------
read-out: Thyroid Hormone Responsive (THRSP), THRSP (gene 7069); assay: LTEA_HepaRG_THRSP: Life Technologies and Expression Analysis (LTEA) Assay for Thyroid Hormone Responsive (THRSP) using HepaRG (AID 2283536); conditions: mRNA level, 48 h; actives raise or lower the signal
Activity calls are given as the source filed them. The calls were made as follows: active = hit-call score of the fitted dose curve at least 0.9, where 1 is the maximum; inactive = score below 0.9.
Hello, when you answer, please use one of the following outcomes: 1 for active, -1 for inactive

CC#Cc1cc(C)nc(Nc2ccccc2)n1 ... 1
N#Cc1ccc(N(CC(N)=O)CC(F)(F)F)cc1C(F)(F)F ... 1
c1ccc(-c2ccccc2)cc1 ... -1
c1cc2ccc3cccc4ccc(c1)c2c34 ... -1

Status in this test for `Nn1cnnc1` ?
-1

Status in this test for `Cc1cc(O)ccc1Cl` ?
-1

Status in this test for `CC(C)(O)C(=O)Nc1ccc([N+](=O)[O-])c(C(F)(F)F)c1` ?
-1

Status in this test for `O=S(=O)(O)C(F)(F)C(F)(F)C(F)(F)C(F)(F)C(F)(F)C(F)(F)F` ?
-1

Status in this test for `C[C@]12CCC(=O)C=C1CC[C@@H]1[C@@H]2CC[C@@]2(C)[C@H]1CC[C@]2(C)O` ?
1

Status in this test for CC(C)C(=O)OCC(C)(C)C(OC(=O)C(C)C)C(C)C (stereo not given) ?
-1

----------
experiment: BSK_SAg_Proliferation: Cell Proliferation Assessment in the BioMAP Diversity Plus: SAg Assay (AID 2283095); details: primary human HUVEC with PBMC;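 note: relative cell number as total protein by SRB absorbance in sub-confluent culture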
The source made the active and inactive calls. Rule for the calls: active = hit-call score of the fitted dose curve at least 0.9, where 1 is the maximum; inactive = score below 0.9.
Hello, when you answer, please use one of the following outcomes: label 1 = active, label 0 = inactive

Examples from the recorded data:
ClC1=C(Cl)[C@]2(Cl)[C@@H]3[C@@H]4C[C@@H]([C@H]5O[C@@H]45)[C@@H]3[C@@]1(Cl)C2(Cl)Cl ... label 1
COc1ccc(O)c(C(C)(C)C)c1 ... label 0
Cc1cc(-c2ccc(N)c(C)c2)ccc1N ... label 1

Status in this test for `O=C(NC(=O)c1c(F)cccc1F)Nc1cc(Cl)c(OC(F)(F)C(F)F)c(Cl)c1` ?
label 0

Status in this test for `Cc1ccc(O)c(C)c1` ?
label 0

Status in this test for `CCCN(CCC)N=O` ?
label 0

Status in this test for `CCCCCCCCOC(=O)c1ccccc1C(=O)OCCCCCCCC` ?
label 0

----------
molecular target: Estrogen receptor (Homo sapiens); assay: ATG_ERa_TRANS: Attagene TRANS-FACTORIAL HepG2 Assay for human Estrogen Receptor alpha (ERa) (AID 2282970); conditions: HepG2 Attagene TRANS ERa GAL4 reporter, mRNA
Results filed as inconclusive are left out. Calls of active or inactive are those of the source. How the source made its calls: active means hit-call score of the fitted dose curve at least 0.9, where 1 is the maximum; inconclusive means response in the unintended direction; inactive means score below 0.9.
Hello, when you answer, please use one of the following outcomes: Y = active, N = inactive

O=NN(c1ccccc1)c1ccccc1 ... Y
Cc1ccccc1O ... N
OCC(O)CO ... Y
Clc1ccc(Cl)cc1 ... N

# next molecule below
Status in this test for `Oc1ccc(Cl)cc1Cl` ?
Y

----------
read-out: Monocyte Chemoattractant Protein-1 (MCP1), CCL2 (gene 6347); test: BSK_3C_MCP1: BioMAP Diversity Plus: 3C Assay for Monocyte Chemoattractant Protein-1 (MCP1) Biomarker Activity (AID 2283017); settings: primary human endothelial cells (HUVEC); actives raise or lower the signal
Active and inactive are the calls of the source. Rule for the calls: active = hit-call score of the fitted dose curve at least 0.9, where 1 is the maximum; inactive = score below 0.9.
Hello, when you answer, please use one of the following outcomes: True = active, False = inactive

CCOC(=O)C(O)(c1ccc(Cl)cc1)c1ccc(Cl)cc1 ... True
CCCCCCCCCC[N+](C)(C)CCCCCCCCCC ... True
Sc1ccccc1 ... False
O=S(=O)(O)C(F)(F)C(F)(F)C(F)(F)C(F)(F)F ... False

Status in this test for `Cc1cccc([N+](=O)[O-])c1` ?
False

Status in this test for `ClC1=C(Cl)[C@]2(Cl)[C@@H]3[C@H]4C[C@H]([C@@H]5O[C@H]45)[C@@H]3[C@@]1(Cl)C2(Cl)Cl` ?
False
